Items are presented alongside their recorded IC50.
# system: cdk2/cyclinA (Homo sapiens, UniProt P24941)
# procedure.text: Cyclin dependent kinase 2 assay (cdk2/cyclinA), 32P incorporation, filter plate
# condition.parameters: retinoblastoma substrate, 12 mM ATP, 25° C., 15 minutes; read-out: Inhibition of Cdks: IC50 Cdk2/A

1. CCNC(=O)Nc1cc(C)c2cnc(Nc3ccc(N4CCNCC4)cc3)nc2n1 > 5 µM
2. O=C(Nc1ccc2cnc(Nc3ccc(N4CCNCC4)cc3)nc2n1)N(CCO)CCO > 5 µM
3. O=C(Nc1ccc2cnc(Nc3ccc(N4CCNCC4)cc3)nc2n1)N1CCNCC1 > 5 µM

What IC50 value was documented for this compound, CC1(C)CN(c2ccc(Nc3ncc4ccc(NC(=O)NC5CCCCC5)nc4n3)cc2)CCN1 ? 0.022 µM

What IC50 value was documented for this compound, CCN(C(=O)NC(C)(C)C)c1ccc2cnc(Nc3ccc(N4C[C@@H](C)N[C@@H](C)C4)cc3)nc2n1 ? 2.03 µM

###

# system: cdk2/cyclinE (Homo sapiens, UniProt P24941)
# procedure.text: Cyclin dependent kinase 2 assay (cdk2/cyclinE), 32P incorporation, filter plate
# condition.parameters: retinoblastoma substrate, 12 mM ATP, 25° C., 15 minutes; read-out: Inhibition of Cdks: IC50 Cdk2/E
property.label: IC50

In the examples that follow, each entry is paired with its recorded IC50.
compound	property.label	reported.result
CC(C)(C)NC(=O)Nc1nc2nc(Nc3ccc(N4CCNCC4)cc3)ncc2cc1Br [Compound 91]	IC50	> 5 µM
CN1CCN(C(=O)Nc2ccc3cnc(Nc4ccc(N5CCNCC5)cc4)nc3n2)CC1 [Compound 84]	IC50	> 5 µM
CC(C)(C)NC(=O)Nc1ccc2cnc(Nc3ccc(N4CCN(C(=O)OC(C)(C)C)CC4)cc3)nc2n1 [Compound 79]	IC50	> 5 µM
C[C@@H]1CN(c2ccc(Nc3ncc4cc(Br)c(NC(=O)NC(C)(C)C)nc4n3)cc2)C[C@H](C)N1 [Compound 94]	IC50	> 5 µM
O=C(Nc1ccc2cnc(Nc3ccc(N4CCNCC4)cc3)nc2n1)NC1CCCCC1 [Compound 9]	IC50	0.02 µM
CC(=O)N1CCN(c2ccc(Nc3ncc4ccc(NC(=O)NCCCN5CCOCC5)nc4n3)cc2)CC1 [Compound 103]	IC50	> 5 µM
Cc1cc2cnc(Nc3ccc(N4C[C@@H](C)N[C@@H](C)C4)cc3)nc2nc1NC(=O)NC(C)C [Compound 119]	IC50	> 5 µM
NCCNC(=O)Nc1ccc2cnc(Nc3ccc(F)cc3)nc2n1 [Compound 98]	IC50	0.14 µM

What IC50 value was documented for this compound, CC(C)(C)OC(=O)N1CCN(c2ccc(Nc3ncc4ccc(NC(=O)NC5CCCCC5)nc4n3)cc2)CC1 [Compound 80] ? 0.23 µM

What IC50 value was documented for this compound, CNC(=O)Nc1cc(C)c2cnc(Nc3ccc(N4CCNCC4)cc3)nc2n1 [Compound 64] ? > 5 µM

What IC50 value was documented for this compound, O=C(Nc1ccc2cnc(Nc3ccc(N4CCNCC4)cc3)nc2n1)N1CCOCC1 [Compound 85] ? > 5 µM

What IC50 value was documented for this compound, CNC(=O)Nc1nc2nc(Nc3ccc(N4CCNCC4)cc3)ncc2cc1Br [Compound 93] ? > 5 µM

What IC50 value was documented for this compound, CCN(C(=O)NC1CCCCC1)c1ccc2cnc(Nc3ccc(N4CCNCC4)cc3)nc2n1 [Compound 107] ? 1.65 µM

Hello, the source for this data is patent US7053070B2, in case you need it.
